target: ΔF508-CFTR (Homo sapiens, UniProt P13569, DEL508-508); construct: host or cells: CFBE41o-, doxycycline-inducible; assay: CFTR cell surface levels using HRP-tagged ΔF508-CFTR expressing CFBE cells, in the presence of a co-corrector; type: cell-based; conditions: HRP-tagged ΔF508-CFTR CFBE cells, in the presence of 3 μM co-corrector; read-out: EC50
Sequence (P13569 with tags, fused parts or gaps DEL508-508): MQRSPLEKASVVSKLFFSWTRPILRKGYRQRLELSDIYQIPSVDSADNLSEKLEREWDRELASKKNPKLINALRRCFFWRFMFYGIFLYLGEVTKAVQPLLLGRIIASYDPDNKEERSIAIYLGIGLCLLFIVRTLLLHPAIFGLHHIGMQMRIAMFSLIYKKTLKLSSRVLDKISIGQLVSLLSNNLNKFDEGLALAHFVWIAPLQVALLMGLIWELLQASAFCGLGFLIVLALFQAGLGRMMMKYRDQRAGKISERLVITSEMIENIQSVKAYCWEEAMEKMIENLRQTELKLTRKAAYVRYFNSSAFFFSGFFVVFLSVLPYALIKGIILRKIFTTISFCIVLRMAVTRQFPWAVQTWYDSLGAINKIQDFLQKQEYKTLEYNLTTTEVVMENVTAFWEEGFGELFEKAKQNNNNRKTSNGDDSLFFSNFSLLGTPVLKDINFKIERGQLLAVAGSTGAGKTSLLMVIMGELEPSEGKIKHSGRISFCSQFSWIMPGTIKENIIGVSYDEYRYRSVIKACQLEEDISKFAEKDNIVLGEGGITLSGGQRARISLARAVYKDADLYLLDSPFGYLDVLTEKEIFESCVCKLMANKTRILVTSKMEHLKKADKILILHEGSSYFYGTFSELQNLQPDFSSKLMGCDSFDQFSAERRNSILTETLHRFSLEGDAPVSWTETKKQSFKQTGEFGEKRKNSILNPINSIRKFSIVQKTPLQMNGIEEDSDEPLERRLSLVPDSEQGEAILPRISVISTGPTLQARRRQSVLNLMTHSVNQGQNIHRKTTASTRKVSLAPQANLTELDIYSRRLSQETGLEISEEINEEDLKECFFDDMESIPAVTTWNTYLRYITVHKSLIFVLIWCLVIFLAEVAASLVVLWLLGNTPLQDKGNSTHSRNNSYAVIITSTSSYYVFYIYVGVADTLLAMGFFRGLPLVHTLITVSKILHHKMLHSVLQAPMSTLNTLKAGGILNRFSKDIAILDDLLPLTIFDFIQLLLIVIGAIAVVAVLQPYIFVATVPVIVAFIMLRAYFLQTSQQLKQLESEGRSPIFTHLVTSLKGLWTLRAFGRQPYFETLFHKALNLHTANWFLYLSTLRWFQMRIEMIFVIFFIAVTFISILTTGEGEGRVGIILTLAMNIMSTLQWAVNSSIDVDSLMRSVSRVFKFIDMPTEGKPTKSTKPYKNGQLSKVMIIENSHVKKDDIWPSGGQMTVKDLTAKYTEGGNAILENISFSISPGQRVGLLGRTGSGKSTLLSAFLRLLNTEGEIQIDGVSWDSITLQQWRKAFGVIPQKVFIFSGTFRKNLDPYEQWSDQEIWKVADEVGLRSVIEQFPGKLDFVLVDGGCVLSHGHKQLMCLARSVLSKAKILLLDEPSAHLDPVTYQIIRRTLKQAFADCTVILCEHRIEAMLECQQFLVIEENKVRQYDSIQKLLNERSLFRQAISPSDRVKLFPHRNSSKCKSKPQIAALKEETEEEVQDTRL
pEC50: −log10 of the molar value.
Label true (1) for high-side pEC50 (at or above 7) and false (0) for low-side pEC50 (below it).

[
  {
    "MOLECULE": "COCCS(=O)(=O)NC(=O)c1cc(N2CCC(COC)CC2)c2c(C(C)C)nn(CC3CCC3)c2n1 [Compound 263]",
    "TARGET ENTITY": "ΔF508-CFTR (Homo sapiens, UniProt P13569, DEL508-508)",
    "CLASS": "false (0)"
  }
]

## Task For this molecule, is measured pEC50 7 or higher? CC(C)Oc1nn(C2CCCCC2)c2nc(C(=O)NS(C)(=O)=O)cc(-c3ccc(C(=O)N4CCC(N(C)C)CC4)cc3)c12 [Compound 544]
## Result false (0)

## Task Threshold query (pEC50 >= 7) on O=C(NS(=O)(=O)N1CCCCC1)c1cc(N2CCC(N3CCOCC3)CC2)c2c(C3CCC3)nn(-c3ccc(F)cc3)c2n1 [Compound 568]
## Result true (1)

## Task Record CS(=O)(=O)NC(=O)c1cc(-c2ccc(N3CCC(C#N)CC3)nc2)c2c(n1)n(-c1ccccc1)nc2[C@H]1C[C@H](F)C1 [Compound 210] ; criterion: pEC50 no lower than 7. Met?
## Result false (0)

Origin of measurements: patent US10259810B2
